Biological target: GABA-A receptor; anion channel (Bos taurus) (UniProt P10063+P08220+P20237+P08219+P10064+P22300)
Assay: GABA ratio is measured by IC50 (compound)/IC50 (compound at 10 uM GABA
Format: protein-complex assay
quantity: Ratio

These solved cases illustrate the format of a correct answer.
| smiles.code | Ratio |
| --- | --- |
| Oc1nc2ccccc2n2nc(-c3cccs3)nc12 | 0.92 |
| Oc1nc2ccc(Cl)cc2n2nc(-c3ccccc3F)nc12 | 0.77 |
| Oc1nc2ccc(Cl)cc2n2nc(-c3cccc(F)c3)nc12 | 0.82 |
| COc1ccc(-c2cn3c(n2)c(O)nc2ccccc23)cc1 | 1.21 |
| Oc1nc2ccccc2n2nc(-c3ccco3)nc12 | 1.05 |
| Oc1nc2ccc(Br)cc2n2nc(-c3ccco3)nc12 | 0.77 |

1: Oc1ccc(-c2nc3c(O)nc4ccccc4n3n2)cc1
2: Oc1nc2ccccc2n2cc(-c3ccccc3)nc12
Query: // task: argmin of Ratio over [ 1 , 2 ] Field: selected label. Fill in the label of the entry you choose.
Response: 1
(1: 0.9, 2: 1.36)

P: Oc1nc2ccc(Cl)cc2n2nc(-c3cccs3)nc12
Q: Oc1nc2ccc(Cl)cc2n2nc(-c3ccco3)nc12
Query: Which numeric Ratio is bigger, that of P or that of Q ? Field: selected label. Fill in the label of the entry you choose.
Response: P

Recorded values, source ChEMBL document CHEMBL1127446.
